Tested on: CFTR (Homo sapiens)
Sequence (P13569 with tags, fused parts or gaps DEL508-508): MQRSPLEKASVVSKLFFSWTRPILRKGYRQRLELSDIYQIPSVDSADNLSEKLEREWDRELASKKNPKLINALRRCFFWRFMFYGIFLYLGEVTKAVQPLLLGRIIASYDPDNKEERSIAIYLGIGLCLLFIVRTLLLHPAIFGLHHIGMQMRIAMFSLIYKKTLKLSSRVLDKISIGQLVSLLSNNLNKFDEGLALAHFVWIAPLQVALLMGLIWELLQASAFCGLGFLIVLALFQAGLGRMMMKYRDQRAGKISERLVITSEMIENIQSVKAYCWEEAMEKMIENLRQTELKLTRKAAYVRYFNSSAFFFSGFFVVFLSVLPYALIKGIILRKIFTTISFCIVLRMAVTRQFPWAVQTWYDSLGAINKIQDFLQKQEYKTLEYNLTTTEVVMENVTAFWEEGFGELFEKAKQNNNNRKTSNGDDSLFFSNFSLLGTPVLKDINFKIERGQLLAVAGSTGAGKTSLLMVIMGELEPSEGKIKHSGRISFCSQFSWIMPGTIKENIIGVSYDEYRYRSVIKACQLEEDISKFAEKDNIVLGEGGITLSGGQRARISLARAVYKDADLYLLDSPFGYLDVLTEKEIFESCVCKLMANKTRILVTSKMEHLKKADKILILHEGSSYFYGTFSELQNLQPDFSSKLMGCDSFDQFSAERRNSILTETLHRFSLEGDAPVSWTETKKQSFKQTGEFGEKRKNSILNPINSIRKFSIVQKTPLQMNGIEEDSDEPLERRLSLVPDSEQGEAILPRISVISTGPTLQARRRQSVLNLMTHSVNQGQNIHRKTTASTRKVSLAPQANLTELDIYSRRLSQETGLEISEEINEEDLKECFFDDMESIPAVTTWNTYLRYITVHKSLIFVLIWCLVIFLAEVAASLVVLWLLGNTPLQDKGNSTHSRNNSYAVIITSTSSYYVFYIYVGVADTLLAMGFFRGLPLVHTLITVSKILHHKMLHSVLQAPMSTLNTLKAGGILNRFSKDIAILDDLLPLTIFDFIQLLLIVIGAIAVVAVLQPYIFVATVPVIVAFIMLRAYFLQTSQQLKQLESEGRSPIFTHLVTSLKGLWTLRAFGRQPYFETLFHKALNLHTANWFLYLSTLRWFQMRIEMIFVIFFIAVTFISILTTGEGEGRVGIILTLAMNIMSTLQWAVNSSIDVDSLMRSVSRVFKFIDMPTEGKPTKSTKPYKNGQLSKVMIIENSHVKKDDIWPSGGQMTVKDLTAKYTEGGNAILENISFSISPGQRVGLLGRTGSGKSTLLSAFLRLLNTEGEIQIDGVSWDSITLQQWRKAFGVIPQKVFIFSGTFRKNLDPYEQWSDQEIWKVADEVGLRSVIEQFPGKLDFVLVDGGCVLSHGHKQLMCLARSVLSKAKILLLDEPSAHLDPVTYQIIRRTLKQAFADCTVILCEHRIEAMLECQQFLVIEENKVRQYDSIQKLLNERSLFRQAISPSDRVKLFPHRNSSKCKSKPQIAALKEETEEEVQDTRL
Test summary: Membrane Potential Dye, Enteroid Assay B
Assay type: cell-based
Experimental readout: Ent. B Max Activity

Solved entries:
Compound: Cc1cccc(C)c1-c1nc2nc(c1C1CCN(C(=O)OC(C)(C)C)CC1)O[C@H](C)CNC(=O)c1cccc(c1)S(=O)(=O)N2
Ent. B Max Activity: ++ (++ is 30-60%)
//
Compound: Cc1cccc(C)c1-c1nc2nc(c1C(F)(F)F)OC[C@@H](CC(C)C)N(C1CC3(CC3)C1)C(=O)c1cccc(c1)S(=O)(=O)N2
Ent. B Max Activity: +++ (+++ is >60%)
//
Compound: Cc1cccc(C)c1-c1nc2nc(c1C)OC[C@@H](CC(C)C)N([C@H]1C[C@@]3(C[C@H](NC(=O)OC(C)C)C3)C1)C(=O)c1cccc(c1)S(=O)(=O)N2 (single isomer, unassigned) [Compound 52]
Ent. B Max Activity: +++ (+++ is >60%)
//
Compound: Cc1cccc(C)c1-c1nc2nc(c1CCC(C)(C)C)OC[C@@H](C)NC(=O)c1cccc(c1)S(=O)(=O)N2
Ent. B Max Activity: ++ (++ is 30-60%)

Consider the following items and state reported Ent. B Max Activity for each.
1. Cc1cccc(C)c1-c1nc2nc(c1C)OC[C@@H](CC1(C(F)(F)F)CC1)N(C1CC3(CC(NC(=O)OC(C)C)C3)C1)C(=O)c1cccc(c1)S(=O)(=O)N2 (stereo in doubt) [Compound 89]
2. Cc1cccc(C)c1-c1nc2nc(c1F)OC[C@@H](CC(C)C)N(C1CC3(CC3)C1)C(=O)c1cccc(c1)S(=O)(=O)N2

["+++ (+++ is >60%)", "+++ (+++ is >60%)"]

###

Tested on: CFTR (Homo sapiens)
Test summary: Membrane Potential Dye, Enteroid Assay A
Format: cell-based
Experimental readout: Ent. A Max Activity

Molecule: CCc1c2nc(nc1-c1c(C)cccc1C)NS(=O)(=O)c1cccc(c1)C(=O)N(C1CC3(CCN(C)CC3)C1)[C@H](CC(C)C)CO2
Tested on: CFTR (Homo sapiens)
Result: +++ (+++ is >60%)
//
Molecule: CC(C)CCc1ccccc1-c1nc2nc(c1C(F)(F)F)OC1CN(Cc3ccccc31)C(=O)c1cccc(c1)S(=O)(=O)N2 (stereo not shown)
Tested on: CFTR (Homo sapiens)
Result: +++ (+++ is >60%)
//
Molecule: CCc1c2nc(nc1-c1ccccc1CC(C)C)NS(=O)(=O)c1cccc(c1)NC(=O)c1cccc(c1)O2
Tested on: CFTR (Homo sapiens)
Result: +++ (+++ is >60%)

###

Please go through the items and note down their EC50.
Tested on: UniProt:P13569
Test summary: Membrane Potential Dye, Enteroid Assay B
Type: cell-based
Condition description: read-out: Ent. B EC50

Compound: CCc1c2nc(nc1-c1c(C)cccc1C)NS(=O)(=O)c1cccc(c1)C(=O)N[C@H](CC(C)C)CO2 [Compound 190]
Result: < 1000 nM

Compound: COC(=O)NC1CC2(C1)CC(N1C(=O)c3cccc(c3)S(=O)(=O)Nc3nc(c(C)c(-c4c(C)cccc4C)n3)OC[C@H]1CC1(C(F)(F)F)CC1)C2 (stereo in doubt) [Compound 86]
Result: < 1000 nM

As a next step, examine the compound that follows.
Given Cc1cccc(C)c1-c1nc2nc(c1C)OC[C@@H](CC(C)(C)C)N(C1CC3(CC3)C1)C(=O)c1cccc(c1)S(=O)(=O)N2 [Compound 101] , state its recorded EC50.
< 1000 nM
